Measured normalised cell number by item
- procedure-summary: differential killing of epithelial or mesenchymal cells, primary screen, imaging, PC-3E GFP, TEM4-18 mCherry, co-culture (AID 1345086);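 further: cells exposed to compound for 72 h before imaging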
- study-conditions: imaging cell counts, measured here: epithelial PC-3E GFP cell survival, at 1 µM
The answer should be written as a number, with no unit following it.

Previously resolved entries follow.
compound	normalised cell number
CN/C(=C\[N+](=O)[O-])NCCSCc1ccc(CN(C)C)o1	1.03
COc1ccc(-c2cc(=O)c3c(OC(C)=O)cc(OC(C)=O)cc3o2)cc1	1.06
CC(O)Cn1cnc2c1c(=O)n(C)c(=O)n2C (stereo not drawn)	1.09
O=C1CC(c2ccccc2)Oc2ccccc21 (stereo not drawn)	1.14
CC(=C(CCOP(=O)(O)O)SC(=O)c1ccccc1)N(C=O)Cc1cnc(C)nc1N	1.05
CC(=O)N(CC(O)CN(C(C)=O)c1c(I)c(C(=O)NCC(O)CO)c(I)c(C(=O)NCC(O)CO)c1I)c1c(I)c(C(=O)NCC(O)CO)c(I)c(C(=O)NCC(O)CO)c1I (stereo not drawn)	1

Query: Return the recorded normalised cell number value; entry: `Cc1ccc(O)cc1`
Response: 1.05

Query: Name the recorded normalised cell number of the item C=NC(C(=O)NC1C(=O)N2C1SC(C)(C)C2C(=O)O)c1ccccc1 (stereo not drawn) in your answer.
Response: 0.88
